Target: CDK9 (Homo sapiens)
Construct: host or cells: HEK293
Sequence (P50750 whole entry): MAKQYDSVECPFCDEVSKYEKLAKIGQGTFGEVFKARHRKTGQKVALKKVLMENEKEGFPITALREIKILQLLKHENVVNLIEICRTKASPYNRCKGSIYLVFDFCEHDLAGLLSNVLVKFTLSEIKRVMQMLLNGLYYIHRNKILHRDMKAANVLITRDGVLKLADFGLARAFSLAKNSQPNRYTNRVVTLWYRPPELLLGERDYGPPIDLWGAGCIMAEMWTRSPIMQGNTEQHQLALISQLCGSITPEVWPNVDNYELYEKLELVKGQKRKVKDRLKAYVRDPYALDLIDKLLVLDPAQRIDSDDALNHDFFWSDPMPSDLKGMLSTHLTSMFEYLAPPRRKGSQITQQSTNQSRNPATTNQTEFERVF
Assay: CDK9 HIBIT PQ (protein quantification), degradation
Format: cell-based
Settings: Max = Maximum
Measure: Dmax (%)

Check out these entries, answers already filled in.
Compound | Measured Target | Dmax (%)
CC(C)Oc1c(-c2cn[nH]c2)ncn2nc(Nc3ccc(S(=O)(=O)c4cccc(C(C)N5CCN(c6ccc7c(N8CCC(=O)NC8=O)nn(C)c7c6)CC5)c4)cc3F)nc12 (single isomer, unassigned) [Compound 98] | CDK9 (Homo sapiens) | 78
CC(C)Oc1c(-c2cn[nH]c2)ncn2nc(N[C@H]3CCN(S(=O)(=O)c4cccc(CN5CCC(c6ccc7c(N8CCC(=O)NC8=O)nn(C)c7c6)CC5)c4)C[C@H]3C)nc12 [Compound 5] | CDK9 (Homo sapiens) | 104
Cc1c(S(=O)(=O)N(C)CCCN2CCC(c3ccc4c(c3)n(C)c(=O)n4C3CCC(=O)NC3=O)CC2)ccc(Nc2nc3c(OC(C)C)c(-c4cn[nH]c4)ncn3n2)c1F (racemic) [Compound 55] | CDK9 (Homo sapiens) | 83

(A) CC(C)Oc1c(-c2cn[nH]c2)ncn2nc(Nc3ccc(S(=O)(=O)c4cccc(C[C@H]5C[C@@H](c6ccc7c(c6)CN([C@H]6CCC(=O)NC6=O)C7=O)C5)c4)cc3F)nc12 (stereo in doubt) [Compound 81]
(B) CC(C)Oc1c(-c2cn[nH]c2)ncn2nc(Nc3ccc(S(=O)(=O)c4cccc(N5CCN(CC6CCN(c7ccc8c(c7)CN(C7CCC(=O)NC7=O)C8=O)CC6)CC5)c4)cc3F)nc12 (racemic) [Compound 9]
Query string: Hi team, can someone confirm which has the larger Dmax: A or B ? Thanks. Mark your answer with the label of the selected entry.
Result string: B

The values you see were collected from patent US20260062426A1.
